The origin of these recorded values is ChEMBL document CHEMBL5380838.

Experiment: Half life in C57BL/6 mouse at 25 mg/kg, ip measured for 0.083 to 24 hrs by LC-MS/MS analysis
Format: ADME, organism-based
Conditions: in vivo, time 0.083-24 hrs
measurementType: half-life

GET /value?item= CC(C)[C@H](NS(=O)(=O)c1ccc([N+](=O)[O-])cc1)C(=O)Nc1c2c(cc3c1CCC3)CCC2 &field=half-life returns 9.5 h

----------
Molecular target: NACHT, LRR and PYD domains-containing protein 3 (Mus musculus)
Assay: Inhibition of NLRP3 inflammasome activation in LPS-treated mouse BMDM cells assessed as inhibition of Bz-ATP-stimulated IL-1beta release at 1 uM incubated for 30 mins followed by Bz-ATP stimulation for 30 mins by ELISA method relative to control
Type: cell-based
Conditions: time 60.0 min
Items are presented alongside their recorded inhibition.

{"columns": ["querySmiles", "inhibition"],
 "data": [
  ["CC(C)C[C@H](NS(=O)(=O)c1ccc(N)cc1)C(=O)Nc1c2c(cc3c1CCC3)CCC2", "31.5%"],
  ["O=C(Nc1c2c(cc3c1CCC3)CCC2)[C@H](Cc1ccc(O)cc1)NS(=O)(=O)c1ccc([N+](=O)[O-])cc1", "34.7%"],
  ["Nc1ccc(S(=O)(=O)NCCC(=O)Nc2c3c(cc4c2CCC4)CCC3)cc1", "22.3%"],
  ["O=C(Nc1c2c(cc3c1CCC3)CCC2)[C@H](CNS(=O)(=O)c1ccc([N+](=O)[O-])cc1)c1ccccc1", "44.8%"]
]}

Now take the following molecule into account.
Noted for Nc1ccc(S(=O)(=O)N[C@@H](Cc2ccccc2)C(=O)Nc2c3c(cc4c2CCC4)CCC3)cc1 : its inhibition reads 38%
